# Organism: Mus musculus
# method.notes: Maximum reduction in plasma triglyceride levels in KKA mice at a dosage of 0.005% in diet
# Type: functional
measured.quantity: Reduction (%)
Number only, in %; omit the unit.

Enquiry: Which Reduction value belongs to Cc1oc(-c2cccs2)nc1CCOc1ccc(CC2SC(=O)NC2=O)cc1 (stereo not given) ?
Return: 72

Enquiry: Try this compound too: Cc1oc(-c2ccccc2)nc1CCCOc1ccc(CC2SC(=O)NC2=O)cc1 (stereo not given)
Return: 29

Enquiry: Try this compound too: COc1ccc(-c2nc(CCOc3ccc(CC4SC(=O)NC4=O)cc3)c(C)o2)cc1 (stereo not given)
Return: 72

Enquiry: Try this compound too: Cc1oc(C2CCCCC2)nc1CCOc1ccc(CC2SC(=O)NC2=O)cc1 (stereo not given)
Return: 71

Enquiry: Try this compound too: `Cc1nc(CCOc2ccc(/C=C3\SC(=O)NC3=O)cc2)cs1`
Return: 5
